Biological target: UniProt:Q05397
Assay: FAK assay system (Focal Adhesion Kinase inhibition)
Type: biochemical
Settings: read-out: FAK IC50
reported-endpoint: IC50 (nM)

| compound | system-tested | IC50 / nM |
| --- | --- | --- |
| CNS(=O)(=O)c1cc(F)ccc1Nc1nc(Nc2ccc(N3CCOCC3)cc2OC)ncc1Br | UniProt:Q05397 | 13 |
| CNS(=O)(=O)c1ccccc1Nc1nc(Nc2cccc3c2ccn3CCCN2CCN(C)CC2)ncc1Cl | UniProt:Q05397 | 2 |
| COc1cc(OC2CCN(C)CC2)ccc1Nc1ncc(Cl)c(Nc2ccccc2S(=O)(=O)NC(C)C)n1 | UniProt:Q05397 | 2.1 |
| CNS(=O)(=O)c1ccccc1Nc1nc(Nc2cc(OCC3CCN(C)CC3)ccc2OC)ncc1Cl | UniProt:Q05397 | 5.3 |
| COc1cc(N2CCOCC2)ccc1Nc1ncc(Cl)c(Nc2ccccc2S(=O)(=O)NCC(C)C)n1 | UniProt:Q05397 | 6.6 |
| CNS(=O)(=O)c1ccccc1Nc1nc(Nc2cc(OCCN3CCN(C)CC3)ccc2OC)ncc1Cl | UniProt:Q05397 | 8 |
| CNS(=O)(=O)c1ccccc1Nc1nc(Nc2cc(OC)ccc2C)ncc1Br | UniProt:Q05397 | 9.1 |
| CNS(=O)(=O)c1ccccc1Nc1nc(Nc2ccccc2OC(F)F)ncc1Cl | UniProt:Q05397 | 23 |

a. CCCS(=O)(=O)c1ccccc1Nc1nc(Nc2ccc(N3CCC[C@@H](C(N)=O)C3)cc2OC)ncc1Cl
b. CNS(=O)(=O)c1ccccc1Nc1nc(Nc2cc(F)ccc2F)ncc1Br
Just curious, which one has the larger IC50 reading, a or b ? // caller expects the label of the chosen entry b
(b: 65 nM, a: 1.6 nM)

---

Target: Focal Adhesion Kinase (FAK) (Homo sapiens, UniProt Q05397)
Sequence (Q05397 384-706): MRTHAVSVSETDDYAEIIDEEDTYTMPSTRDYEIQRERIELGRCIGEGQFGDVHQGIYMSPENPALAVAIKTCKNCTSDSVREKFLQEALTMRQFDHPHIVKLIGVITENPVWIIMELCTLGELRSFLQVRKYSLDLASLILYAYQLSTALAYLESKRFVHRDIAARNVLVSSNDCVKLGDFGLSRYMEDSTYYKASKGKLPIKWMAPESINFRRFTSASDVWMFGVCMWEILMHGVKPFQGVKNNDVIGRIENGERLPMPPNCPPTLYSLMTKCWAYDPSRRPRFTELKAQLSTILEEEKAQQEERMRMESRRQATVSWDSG
Experiment: FAK assay system (Focal Adhesion Kinase inhibition)
Assay type: biochemical
Settings: read-out: FAK IC50
reported-endpoint: IC50 (nM)

Recorded results for 6 compounds are shown here.
| compound | system-tested | IC50 / nM |
| --- | --- | --- |
| COc1cc(N2CCC[C@H]2CN2CCCC2)ccc1Nc1ncc(Cl)c(Nc2ccccc2S(=O)(=O)NC(C)C)n1 | Focal Adhesion Kinase (FAK) (Homo sapiens, UniProt Q05397) | 2.3 |
| COc1cc(N2CCOCC2)ccc1Nc1ncc(Cl)c(Nc2cccc3c2C(=O)N(C)C3)n1 | Focal Adhesion Kinase (FAK) (Homo sapiens, UniProt Q05397) | 2.5 |
| CCC(CC)NS(=O)(=O)c1ccccc1Nc1nc(Nc2ccc(N3CCC(NC)C3)cc2OC)ncc1Cl (centres unmarked) | Focal Adhesion Kinase (FAK) (Homo sapiens, UniProt Q05397) | 1.7 |
| CNS(=O)(=O)c1ccccc1Nc1nc(Nc2ccc(N3CCNCC3)cc2OC)ncc1Cl | Focal Adhesion Kinase (FAK) (Homo sapiens, UniProt Q05397) | 3 |
| CCCCCS(=O)(=O)c1ccccc1Nc1nc(Nc2ccc(N3CCOCC3)cc2OC)ncc1Cl | Focal Adhesion Kinase (FAK) (Homo sapiens, UniProt Q05397) | 33 |
| CNS(=O)(=O)c1ccccc1Nc1nc(Nc2ccc(OCCCN3CCOCC3)cc2OC)ncc1Br | Focal Adhesion Kinase (FAK) (Homo sapiens, UniProt Q05397) | 3.5 |

1. CCCCS(=O)(=O)c1ccccc1Nc1nc(Nc2ccc(N3CCOCC3)cc2OC)ncc1Cl
2. CNS(=O)(=O)c1ccccc1Nc1nc(Nc2cc(N3CCC(O)CC3)ccc2OC)ncc1Cl
Just curious, which one has the larger IC50 reading, 1 or 2 ? // caller expects the label of the chosen entry 2
